Taken from patent US12655175B2.

Molecular target: GABAA receptor
Assay: Steroid inhibition of [35S]-TBPS binding
Conditions: rat brain cortical membranes, 3 nM [35S]-TBPS, in the presence of 5 mM GABA
Method: Steroid Inhibition of TBPS Binding Briefly, cortices are rapidly removed following decapitation of carbon dioxide-anesthetized Sprague-Dawley rats ([…]). The cortices are homogenized in 10 volumes of ice-cold 0.32 M sucrose using a glass/teflon homogenizer and centrifuged at 1500×g for 10 min at 4° C. The resultant supernatants are centrifuged at 10,000×g for 20 min at 4° C. to obtain the P2 pellets. […] Filter bound radioactivity is measured by liquid scintillation spectrometry. […]
pIC50: −log10 of the molar value.
# pIC50 per entry
recorded_metric: pIC50

• C[C@@]1(O)CC[C@H]2[C@H](CC[C@@H]3[C@@H]2CC[C@]2(C)[C@@H](C(=O)CNc4ccccc4)CC[C@@H]32)C1 = > 8.00
• C[C@@]1(O)CC[C@H]2[C@H](CC[C@@H]3[C@@H]2CC[C@]2(C)[C@@H](C(=O)NCC4CCOCC4)CC[C@@H]32)C1 = < 6.30
• CN(C(=O)[C@H]1CC[C@H]2[C@@H]3CC[C@@H]4C[C@](C)(O)CC[C@@H]4[C@H]3CC[C@]12C)C1CCCCC1 = 6.30 to 7.00
• C[C@@]1(O)CC[C@H]2[C@H](CC[C@@H]3[C@@H]2CC[C@]2(C)[C@@H](C(=O)CNc4cccc(F)c4)CC[C@@H]32)C1 = > 8.00
• C[C@@H](c1ccccc1)N(C)C(=O)[C@H]1CC[C@H]2[C@@H]3CC[C@@H]4C[C@](C)(O)CC[C@@H]4[C@H]3CC[C@]12C = 7.30 to 8.00

====

Molecular target: GABAA receptor
Assay: Steroid inhibition of [35S]-TBPS binding
Settings: rat brain cortical membranes, 3 nM [35S]-TBPS, in the presence of 5 mM GABA
Experimental: Steroid Inhibition of TBPS Binding Briefly, cortices are rapidly removed following decapitation of carbon dioxide-anesthetized Sprague-Dawley rats ([…]). The cortices are homogenized in 10 volumes of ice-cold 0.32 M sucrose using a glass/teflon homogenizer and centrifuged at 1500×g for 10 min at 4° C. The resultant supernatants are centrifuged at 10,000×g for 20 min at 4° C. to obtain the P2 pellets. […] Filter bound radioactivity is measured by liquid scintillation spectrometry. […]
pIC50: −log10 of the molar value.
pIC50 by entry:
recorded_metric: pIC50

• C[C@@]1(O)CC[C@H]2[C@H](CC[C@@H]3[C@@H]2CC[C@]2(C)[C@@H](C(=O)CNc4ccc(F)cc4)CC[C@@H]32)C1 = > 8.00
• CCOC[C@@]1(O)CC[C@H]2[C@H](CC[C@@H]3[C@@H]2CC[C@]2(C)[C@@H](C(=O)CN(C)c4ccccc4)CC[C@@H]32)C1 = 6.30 to 7.00
• C[C@@]1(O)CC[C@H]2[C@H](CC[C@@H]3[C@@H]2CC[C@]2(C)[C@@H](C4CCOCC4)CC[C@@H]32)C1 = < 6.30
• CC[C@H](NC(=O)[C@H]1CC[C@H]2[C@@H]3CC[C@@H]4C[C@](C)(O)CC[C@@H]4[C@H]3CC[C@]12C)c1ccc(F)cc1 (single isomer, unassigned) = 6.30 to 7.00
• C[C@@]1(O)CC[C@@]2(C)[C@@H](CC[C@@H]3[C@@H]2CC[C@]2(C)[C@@H](NC(=O)c4ccccc4)CC[C@@H]32)C1 = < 6.30
• Cc1ccc([C@H]2CC[C@H]3[C@@H]4CC[C@@H]5C[C@](C)(O)CC[C@@H]5[C@H]4CC[C@]23C)cc1 = 6.30 to 7.00
• CCO[C@H]1C[C@@]2(C)[C@@H](CC[C@H]3[C@@H]4CC[C@H]([N+](=O)[O-])[C@@]4(C)CC(=O)[C@@H]32)C[C@@H]1O = 7.00 to 7.30
• CCOC[C@@]1(O)CC[C@H]2[C@H](CC[C@@H]3[C@@H]2CC[C@]2(C)[C@@H](C(=O)N(C)[C@H](C)c4ccc(F)cc4)CC[C@@H]32)C1 = 6.30 to 7.00
• CO[C@H]1C[C@@]2(C)[C@@H](CC[C@H]3[C@@H]4CC[C@H]([N+](=O)[O-])[C@@]4(C)CC(=O)[C@@H]32)C[C@@H]1O = 6.30 to 7.00
• CN(C(=O)[C@H]1CC[C@H]2[C@@H]3CC[C@@H]4C[C@](C)(O)CC[C@@H]4[C@H]3CC[C@]12C)c1ccccc1 = < 6.30
• COC[C@]12CC[C@](O)(C(F)(F)F)C[C@H]1CC[C@H]1[C@@H]3CC[C@H](C(=O)NC4CCCCC4)[C@@]3(C)CC[C@@H]12 = < 6.30
• CC[C@@H](NC(=O)[C@H]1CC[C@H]2[C@@H]3CC[C@@H]4C[C@](C)(O)CC[C@@H]4[C@H]3CC[C@]12C)c1ccc(F)cc1 (single isomer, unassigned) = 6.30 to 7.00
• C[C@@]1(O)CC[C@@]2(C)[C@@H](CC[C@@H]3[C@@H]2CC[C@]2(C)[C@@H](Nc4cccc(F)c4)CC[C@@H]32)C1 = 6.30 to 7.00
• CO[C@H]1C[C@@]2(C)[C@@H](CC[C@@H]3[C@@H]2[C@@H](O)C[C@]2(C)[C@@H]([N+](=O)[O-])CC[C@@H]32)C[C@@H]1O = 6.30 to 7.00
• CN(CC(=O)[C@H]1CC[C@H]2[C@@H]3CC[C@@H]4C[C@](C)(O)CC[C@@H]4[C@H]3CC[C@]12C)c1ccc(F)cc1 = 7.30 to 8.00
• CN(c1ccccc1)[C@H]1CC[C@H]2[C@@H]3CC[C@H]4C[C@](C)(O)CC[C@]4(C)[C@H]3CC[C@]12C = < 6.30
• C[C@@]1(O)CC[C@H]2[C@H](CC[C@@H]3[C@@H]2CC[C@]2(C)[C@@H](C(=O)NC4CCCCC4)CC[C@@H]32)C1 = 7.00 to 7.30
• CN(CC(=O)[C@H]1CC[C@H]2[C@@H]3CC[C@H]4C[C@@](O)(C(F)(F)F)CC[C@]4(C)[C@H]3CC[C@]12C)c1ccccc1 = < 6.30
• C[C@@]1(O)CC[C@@]2(C)[C@@H](CC[C@@H]3[C@@H]2CC[C@]2(C)[C@@H](OCc4ccccc4)CC[C@@H]32)C1 = < 6.30

====

Listed next: entries and their corresponding pIC50.
molecular target: GABAA receptor; test: Steroid inhibition of [35S]-TBPS binding; details: rat brain cortical membranes, 3 nM [35S]-TBPS, in the presence of 5 mM GABA
pIC50: −log10 of the molar value.
recorded_metric: pIC50

- C[C@@]1(O)CC[C@H]2[C@@H](CC[C@@H]3[C@@H]2CC[C@@]2(C)[C@H]3CCC2(O)c2ccccc2)C1 (stereo in doubt) [Compound 100]: < 6.30
- CCOC[C@@]1(O)CC[C@H]2[C@H](CC[C@@H]3[C@@H]2CC[C@]2(C)[C@@H](C(=O)N4CCc5ccccc5C4)CC[C@@H]32)C1 [Compound 44]: 7.00 to 7.30
- CCOC[C@@]1(O)CC[C@H]2[C@H](CC[C@@H]3[C@@H]2CC[C@]2(C)[C@@H](C(=O)N4CCCCC4)CC[C@@H]32)C1 [Compound 50]: 6.30 to 7.00
- C[C@H](NC(=O)[C@H]1CC[C@H]2[C@@H]3CC[C@@H]4C[C@](C)(O)CC[C@@H]4[C@H]3CC[C@]12C)c1ccccc1 [Compound 27]: 6.30 to 7.00
- CN(CC1CCOCC1)C(=O)[C@H]1CC[C@H]2[C@@H]3CC[C@@H]4C[C@](C)(O)CC[C@@H]4[C@H]3CC[C@]12C [Compound 14]: < 6.30
- CN(Cc1ccccc1)C(=O)[C@H]1CC[C@H]2[C@@H]3CC[C@@H]4C[C@](C)(O)CC[C@@H]4[C@H]3CC[C@]12C [Compound 4]: 7.30 to 8.00
- C[C@H]1CCCCN1C(=O)[C@H]1CC[C@H]2[C@@H]3CC[C@@H]4C[C@](C)(O)CC[C@@H]4[C@H]3CC[C@]12C [Compound 28]: 6.30 to 7.00
- CCOC[C@]12CC[C@@](C)(O)C[C@@H]1CC[C@H]1[C@@H]3CC[C@H](C(=O)CN(C)c4ccccc4)[C@@]3(C)CC[C@@H]12 [Compound 65]: 6.30 to 7.00
- C[C@@]1(O)CC[C@H]2[C@H](CC[C@@H]3[C@@H]2CC[C@]2(C)[C@@H](c4cccnc4)CC[C@@H]32)C1 [Compound 106]: 7.30 to 8.00
- CCOC[C@]12CC[C@@](C)(O)C[C@@H]1CC[C@H]1[C@@H]3CC[C@H](C(=O)CNc4ccccc4)[C@@]3(C)CC[C@@H]12 [Compound 66]: 7.00 to 7.30
- Cn1cc([C@H]2CC[C@H]3[C@@H]4CC[C@@H]5C[C@](C)(O)CC[C@@H]5[C@H]4CC[C@]23C)cn1 [Compound 111]: 7.00 to 7.30
- C[C@@]1(O)CC[C@H]2[C@H](CC[C@@H]3[C@@H]2CC[C@]2(C)[C@@H](C(=O)NCC4CCCCC4)CC[C@@H]32)C1 [Compound 17]: 6.30 to 7.00
- C[C@@H](c1ccc(C#N)cc1)N(C)C(=O)[C@H]1CC[C@H]2[C@@H]3CC[C@@H]4C[C@@](O)(C(F)(F)F)CC[C@@H]4[C@H]3CC[C@]12C [Compound 70]: 6.30 to 7.00
- C[C@@]1(O)CC[C@H]2[C@H](CC[C@@H]3[C@@H]2CC[C@]2(C)[C@@H](c4cncnc4)CC[C@@H]32)C1 [Compound 104]: 7.00 to 7.30
- C[C@@]1(O)CC[C@H]2[C@H](CC[C@@H]3[C@@H]2CC[C@]2(C)[C@@H](c4ccccn4)CC[C@@H]32)C1 [Compound 108]: 6.30 to 7.00
- C[C@@]1(O)CC[C@H]2[C@H](CC[C@@H]3[C@@H]2CC[C@]2(C)[C@@H](C(=O)N4CCCCC4)CC[C@@H]32)C1 [Compound 5]: 7.00 to 7.30
- CC(=O)N[C@H]1CC[C@H]2[C@@H]3CC[C@H]4C[C@](C)(O)CC[C@]4(C)[C@H]3CC[C@]12C [Compound 95]: < 6.30
- C[C@@]1(O)CC[C@H]2[C@H](CC[C@@H]3[C@@H]2CC[C@]2(C)[C@@H](c4ccncc4)CC[C@@H]32)C1 [Compound 103]: 7.30 to 8.00
- CCN(CC)C(=O)[C@H]1CC[C@H]2[C@@H]3CC[C@@H]4C[C@](C)(O)CC[C@@H]4[C@H]3CC[C@]12C [Compound 2]: 6.30 to 7.00
- CC1(O)CC[C@H]2[C@@H]3CC[C@@H]4C[C@](C)(O)CC[C@@H]4[C@H]3CC[C@@]21C (stereo partly shown) [Compound 126]: < 6.30
- C[C@@]1(O)CC[C@H]2[C@H](CC[C@@H]3[C@@H]2CC[C@]2(C)[C@@H](C(=O)NCc4ccccc4)CC[C@@H]32)C1 [Compound 1]: 7.00 to 7.30
- C[C@@]1(O)CC[C@H]2[C@H](CC[C@@H]3[C@@H]2CC[C@]2(C)[C@@H](c4cccc(C#N)c4)CC[C@@H]32)C1 [Compound 105]: 7.30 to 8.00
